- System Under Test: UniProt P49841
- Sequence (P49841 whole entry): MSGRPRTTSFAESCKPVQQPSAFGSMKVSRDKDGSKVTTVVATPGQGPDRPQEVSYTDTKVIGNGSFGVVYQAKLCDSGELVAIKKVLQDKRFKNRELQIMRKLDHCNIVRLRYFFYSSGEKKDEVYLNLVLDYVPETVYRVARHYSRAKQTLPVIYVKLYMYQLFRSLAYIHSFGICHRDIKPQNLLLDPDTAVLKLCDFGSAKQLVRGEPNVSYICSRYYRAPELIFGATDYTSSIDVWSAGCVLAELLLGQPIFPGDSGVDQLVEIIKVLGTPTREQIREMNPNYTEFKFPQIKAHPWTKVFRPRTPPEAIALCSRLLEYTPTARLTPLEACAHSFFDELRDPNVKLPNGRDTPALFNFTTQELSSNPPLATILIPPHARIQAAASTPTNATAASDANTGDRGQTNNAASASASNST
- Assay Procedure: GSK3β kinase assay, IC50 determination
- Format: biochemical
pIC50: −log10 of the molar value.

Sample Smiles | System Under Test | pIC50
COc1cc(/C=C/C(=O)CC(=O)/C=C/c2ccc(O)c(OC)c2)ccc1O | UniProt P49841 | < 5.52
